The binders listed here are annotated with their EC50.
Target: T1, mucin domain-deleted Sudan GP (GPdMuc) (Sudan virus (SUDV), UniProt Q7T9D9 33-632)
T1 construct: also called Sudan GPdMuc; GP(S)dMuc
Assay: ELISA on coated GP
Readout label: EC50 (µg/mL)

{"Binder": "antibody 294S (antibody, V domains shown) VH: QVQLQESGPGLVKPSQTLSLTCTVSGGSISSGGYHWSWIRQHPGKGLEWIGNIYYNGRTYYNPSLKSRVTISVDTSENEFSLKLSSVTAADTAVYYCARDRRRPRIGHDYGMDVWGQGTKVIVSS VL: DIQMTQSPSSLSASVGDRVTISCRASQSISNFLNWYQQKPGQAPKLLIYTASNLQSGVPSRFSGSGSGTDFTLTISSLQPEDFATYYCQQIYNTGMYSFGQGTKLEIKR", "Numeric readout": 0.0266}
{"Binder": "antibody 503S (antibody, V domains shown) VH: QVQLVQSGAEVKKPGASVRVSCKASGYTFTSYYMHWVRQAPGQGLEWMGQINPSGGTTRYERKFQGRITVTRDTSTSTVYLELSSLRSEDTASYFCACLRDKVTYYDLWSGVDSVWGQGTLVTVSS VL: DIQMTQSPSSLSASVGDRVTITCRASQDISTWLAWYQQKPEKAPKSLIYAASTLETGVPSRFSGSGSGTDFTLTISSLQPEDFATYYCEQYNGFPRTFGQGTKLDIK", "Numeric readout": 0.499}
{"Binder": "antibody 233S (antibody, V domains shown) VH: EVQLVESGGGLGQPGGSLRLSCAASGFKFKIFGMNWVRQAPGKGLEWVSYISSRSSIIYYADSVKGRFTISRDDATNSLFLQMNSLRDEDTAMYYCVRDYNLIDFVWGSLFDYWGQGILVTVSS VL: AIRMTQSPSSLSASTGDSVTITCRASQNIASYLAWYQQIPGKAPKLLIYVASTLQSGVPSRFSGSGSGTDFTLTISSLQSEDFATYYCQQYYRYPPTFGQGTKVEIK", "Numeric readout": 0.195}
